# System: Escherichia coli
# method: Antibacterial activity against Escherichia coli K-12 after 24 hrs by microdilution method
# Type: functional
# applied_conditions: K-12, 24 h
Could you please report measured MIC for the items listed next?

Example entries and their recorded answers appear below.
>>> val("CC(=O)OC[C@H]1O[C@@H](Oc2cc(O)c3c(=O)c(O[C@@H]4O[C@H](COC(C)=O)[C@H](OC(C)=O)[C@H](OC(C)=O)[C@H]4OC(C)=O)c(-c4ccc(O)c(O)c4)oc3c2)[C@H](OC(C)=O)[C@@H](OC(C)=O)[C@H]1OC(C)=O")
"> 128 µg/mL"
>>> val("CCCc1ccc(C(=O)OC[C@H]2O[C@@H](Oc3c(-c4ccc(O)c(O)c4)oc4cc(O)cc(O)c4c3=O)[C@H](OC(=O)c3ccc(CCC)cc3)[C@@H](O)[C@H]2O)cc1")
"> 128 µg/mL"
>>> val("Cc1ccc(CC(=O)OC[C@H]2O[C@@H](Oc3c(-c4ccc(O)c(O)c4)oc4cc(O)cc(O)c4c3=O)[C@H](OC(=O)Cc3ccc(C)cc3)[C@@H](O)[C@H]2O)cc1")
"> 128 µg/mL"
>>> val("O=C(CCCCc1ccc(F)cc1)OC[C@H]1O[C@@H](Oc2c(-c3ccc(O)c(O)c3)oc3cc(O)cc(O)c3c2=O)[C@H](OC(=O)CCCCc2ccc(F)cc2)[C@@H](O)[C@H]1O")
"> 128 µg/mL"

Take each entry in turn and give its MIC.
1. O=C(CCc1ccc(F)cc1)OC[C@H]1O[C@@H](Oc2c(-c3ccc(O)c(O)c3)oc3cc(O)cc(O)c3c2=O)[C@H](OC(=O)CCc2ccc(F)cc2)[C@@H](O)[C@H]1O
2. O=C(CCCc1ccc(F)cc1)OC[C@H]1O[C@@H](Oc2c(-c3ccc(O)c(O)c3)oc3cc(O)cc(O)c3c2=O)[C@H](OC(=O)CCCc2ccc(F)cc2)[C@@H](O)[C@H]1O
3. O=C(CCc1ccc(F)cc1)Oc1cc(O)c2c(=O)c(OC(=O)CCc3ccc(F)cc3)c(-c3ccc(O)c(O)c3)oc2c1
4. CCn1cc(C(=O)O)c(=O)c2cc(F)c(N3CCNCC3)cc21

> 128 µg/mL
> 128 µg/mL
64 µg/mL
0.25 µg/mL

----------
# System: Staphylococcus aureus
# method: Antibacterial activity against methicillin-resistant Staphylococcus aureus N315 after 24 hrs by microdilution method
# Format: functional
# applied_conditions: N315, 24 h
reported_property: MIC (µg/mL)
One number for each entry, in µg/mL.

Take a look at these entries with their results.
>>> val("CCOc1ccc(C(=O)OC[C@H]2O[C@@H](Oc3c(-c4ccc(O)c(O)c4)oc4cc(O)cc(O)c4c3=O)[C@H](OC(=O)c3ccc(OCC)cc3)[C@@H](O)[C@H]2O)cc1")
8
>>> val("Cc1ccc(CCC(=O)O[C@H]2[C@H](Oc3c(-c4ccc(O)c(O)c4)oc4cc(O)cc(O)c4c3=O)O[C@H](CO)[C@@H](O)[C@@H]2OC(=O)CCc2ccc(C)cc2)cc1")
1
>>> val("O=C(CCc1ccc(F)cc1)Oc1cc(O)c2c(=O)c(OC(=O)CCc3ccc(F)cc3)c(-c3ccc(O)c(O)c3)oc2c1")
16
>>> val("CCCc1ccc(C(=O)O[C@H]2[C@H](Oc3c(-c4ccc(O)c(O)c4)oc4cc(O)cc(O)c4c3=O)O[C@H](CO)[C@@H](O)[C@@H]2OC(=O)c2ccc(CCC)cc2)cc1")
1

Attention now shifts to the item below.
Reported MIC for `O=C(CCc1ccc(O)cc1)O[C@H]1[C@H](Oc2c(-c3ccc(O)c(O)c3)oc3cc(O)cc(O)c3c2=O)O[C@H](CO)[C@@H](O)[C@@H]1OC(=O)CCc1ccc(O)cc1` : what is it? 1

Each recorded value in this set is attributed to ChEMBL document CHEMBL1795235.
